Field: GI50. Provide a value for each of the compounds that follow.
tested on: COLO 205; assay: NCI tumour cell line growth inhibition, 48 h
The source made the active and inactive calls. No stated cut-off is given here; in the data, active = GI50 up to about 1.1 µM and inactive = higher.

# COMPOUND, ENDPOINT VALUE
measured = [
    ("Cc1cc2[nH]c3[nH]c(=O)[nH]c(=O)c3c2cc1C", "> 100 µM (inactive)"),
]

# batch: return GI50 for each of the 7 compounds below
1. O=[N+]([O-])c1ccc(O)c(/C=N/CC2CCCN3CCCCC23)c1 (stereo unspecified)
2. COc1cc2c(cn1)[nH]c1ccccc12
3. CC(=O)OC1=C(CC(C)(C)C)C(=O)c2ccccc2C1=O
4. CCOCC(=O)N(C)c1cccc2c3c(n(C)c12)CCCCC3
5. N=C(N)Nc1nc2cc([N+](=O)[O-])ccc2[nH]1
6. O=C(c1ccco1)N(C(=S)N1CCN(c2ccccc2)CC1)C1CCCCC1
7. CN(C)CCNC1=CC(=O)c2nc3ccccc3c3ccnc1c23

Output:
1. 24.2 µM (inactive)
2. > 100 µM (inactive)
3. 23.6 µM (inactive)
4. > 100 µM (inactive)
5. > 100 µM (inactive)
6. 45 µM (inactive)
7. 2.75 µM (inactive)

# batch: return GI50 for each of the 3 compounds below
1. Cc1n[n+]([O-])c(C)cc1[N+](=O)[O-]
2. c1ccc(CCCNc2nnnc3ccccc23)cc1
3. CC(=O)OC1=CC2=CC[C@H]3[C@@H]4CCC(=O)[C@@]4(C)CC(=O)[C@]3(S)[C@@]2(C)CC1

Output:
1: 13.5 µM (inactive); 2: 62.5 µM (inactive); 3: 32.4 µM (inactive)

* * *

Field: GI50. Provide a value for each of the molecules that follow.
tested on: HOP-92; experiment: NCI tumour cell line growth inhibition, 48 h
Activity calls are given as the source filed them. Cut-off read from the data, not from the text of the source: active = GI50 up to about 1.1 µM and inactive = higher.

Solved entries (count: 4):
# MOLECULE, TESTED ON, RECORDED METRIC, ENDPOINT VALUE
measured = [
    ("C=C1CC(CC(=O)C(C)CC2CC(=C)C(=O)O2)OC1=O (stereo not given)", "HOP-92", "GI50", "17.7 µM (inactive)"),
    ("N=C(N)Nc1nc2cc([N+](=O)[O-])ccc2[nH]1", "HOP-92", "GI50", "> 100 µM (inactive)"),
    ("COc1cc(/C=C/C(=N\\NS(=O)(=O)c2ccc(C)cc2)c2sc(NNC(C)=O)nc2C)ccc1O", "HOP-92", "GI50", "> 100 µM (inactive)"),
    ("Cc1nc2sccn2c1C(=O)NC(=O)Nc1ccc(Cl)cc1", "HOP-92", "GI50", "31.2 µM (inactive)"),
]

# batch: return GI50 for each of the 6 molecules below
1. CC(C)(C)[C@H]1CO[C@]2(c3ccccc3)[C@@H]3C[C@@H]3C(=O)N12
2. Cc1nc2nn[nH]n2c(=O)c1CCO
3. Cc1ccc(S(=O)(=O)N2CC2CCCCC=O)cc1 (stereo not given)
4. O=C(O)Cc1ccccc1CCc1ccccc1Cl
5. CCCCCCCCCCCC(=O)NCc1ccc(OC(=O)CCCCCCCCCCC)c(OC)c1
6. CC/C(CC(=O)CCC(=O)Nc1ccc(C)c(C)c1)=N\NC(=O)c1cc2ccccc2cc1O

Output:
["> 100 µM (inactive)", "> 100 µM (inactive)", "> 100 µM (inactive)", "> 100 µM (inactive)", "> 100 µM (inactive)", "31.2 µM (inactive)"]

# batch: return GI50 for each of the 5 molecules below
1. CCOC(=O)C1C(c2ccc3c(c2)OCO3)c2c(n[nH]c2O)CC1(O)OCC (stereo not given)
2. O=C(O)C(Cc1ccccc1-c1ccccc1)C(=O)O
3. COc1cccc(NC(=O)CC(=O)N2N=C(C)C(/N=N\c3ccc(S(=O)(=O)c4ccc(/N=N/C5C(=O)N(C(=O)CC(=O)Nc6cccc(OC)c6)N=C5C)cc4)cc3)C2=O)c1 (stereo not given)
4. CC(C)(C)c1ccc(-c2nc3ccccc3c(=O)o2)cc1
5. COc1nc(SC)nc2c1C(O)n1c(nc3ccccc31)S2 (stereo not given)

Output:
1: > 100 µM (inactive); 2: > 100 µM (inactive); 3: > 100 µM (inactive); 4: 28 µM (inactive); 5: 23.3 µM (inactive)

* * *

system: Malme-3M; experiment: NCI tumour cell line growth inhibition, 48 h
The source made the active and inactive calls. Cut-off read from the data, not from the text of the source: active = GI50 up to about 1.1 µM and inactive = higher.
RECORDED METRIC: GI50

Solved entries (count: 3):
# MOLECULE, ENDPOINT VALUE
records = [
    ("COc1cc2c(cc1OC)C1Cc3ccccc3CN1CCC2 (stereo unspecified)", "> 100 µM (inactive)"),
    ("Nc1c2ccccc2nc2c(C(=O)Nc3ccc(S(N)(=O)=O)cc3)cccc12", "74 µM (inactive)"),
    ("CCCCCCCCCc1cc(-c2ccc(C=O)s2)sc1-c1ccc(C=O)s1", "40.5 µM (inactive)"),
]

# batch: return GI50 for each of the 6 molecules below
1. Nc1cc(S(N)(=O)=O)ccc1SSc1ccc(S(N)(=O)=O)cc1N
2. CCCCNC(=S)Nc1nc(C(=O)NNC(=S)NCC)cs1
3. O=C1C(c2ccccc2)=C(O)c2cccc3cccc1c23
4. N#C/C(=C\c1ccc(O)c(O)c1)C(N)=O
5. CN(C)CCNC1=CC(=O)c2nc3ccccc3c3ccnc1c23
6. N#CCCN(CCC#N)c1ccc(/C=C2\N=C(c3cc([N+](=O)[O-])ccc3Cl)N(NC(=O)CC(=O)Nc3ccccc3Cl)C2=O)cc1

Output:
1. > 100 µM (inactive)
2. > 100 µM (inactive)
3. > 100 µM (inactive)
4. 50.6 µM (inactive)
5. 3 µM (inactive)
6. > 100 µM (inactive)

# batch: return GI50 for each of the 2 molecules below
1. COc1nc(SC)nc2c1C(O)n1c(nc3ccccc31)S2 (stereo unspecified)
2. Cc1ccc(Nc2sc(C)cc2C#N)c([N+](=O)[O-])c1

Output:
1. 40 µM (inactive)
2. > 100 µM (inactive)

* * *

system: KM12; experiment: NCI tumour cell line growth inhibition, 48 h
Calls of active or inactive are those of the source. Rule as the data show it: active = GI50 up to about 1.1 µM and inactive = higher.
RECORDED METRIC: GI50

Solved entries (count: 5):
# COMPOUND, GI50
data = [
    ("Cc1ccccc1NC(=O)c1ccc([N+](=O)[O-])cc1", "67.5 µM (inactive)"),
    ("O=C1C=CC2(O[C@H](c3ccccc3)[C@@H](c3ccccc3)O2)[C@H](Sc2ccccc2O)C1", "1.98 µM (inactive)"),
    ("COC1(C)Cc2c(c(C)c(O)c3c2C(=O)C=C(Cl)C3=O)O1 (stereo unspecified)", "> 100 µM (inactive)"),
    ("Clc1cccc2[nH]ncc12", "> 100 µM (inactive)"),
    ("Oc1ccc(/C=C\\c2nnc(/C=C\\c3ccc(O)c(O)c3)s2)cc1O", "5.45 µM (inactive)"),
]

# batch: return GI50 for each of the 6 compounds below
1. NC(=O)CSc1c2cc(O)ccc2nc2ccc(O)cc12
2. COc1ccc(-n2cnc3c(NC(Cc4ccccc4)C(=O)O)ncnc32)cc1 (stereo unspecified)
3. CC(=O)O[C@@]1(C)[C@@H](C)C(=O)O[C@@H]2CCN3CC=C(COC(=O)[C@]1(C)O)[C@H]23
4. CSC(=Nc1nnc(-c2ccc([N+](=O)[O-])cc2)s1)SC
5. COC(=O)c1cc(/C=C\c2cc(OC)ccc2OC)ccc1OC
6. CC1(C)O[C@H](C(=O)O)[C@@H](C(=O)O)O1

Output:
1. > 10 µM (inactive)
2. > 100 µM (inactive)
3. > 100 µM (inactive)
4. > 94.8 µM (inactive)
5. 29.2 µM (inactive)
6. > 100 µM (inactive)

* * *

test system: U-251; assay: NCI tumour cell line growth inhibition, 48 h
Calls of active or inactive are those of the source. No stated cut-off is given here; in the data, active = GI50 up to about 1.1 µM and inactive = higher.
Field: GI50. Provide a value for each of the compounds that follow.

# COMPOUND, RECORDED METRIC, ENDPOINT VALUE
rows = [
    ("O=C(Nc1cc2cc([N+](=O)[O-])ccc2oc1=O)c1cccs1", "GI50", "19.8 µM (inactive)"),
    ("C1CSC2=C(S1)SC1=C(S2)SC(=C2SC3=C(SC4=C(SCCS4)S3)S2)S1", "GI50", "> 100 µM (inactive)"),
    ("O=C(Oc1ccccn1)c1cc2cc(CCl)ccc2oc1=O", "GI50", "18.5 µM (inactive)"),
    ("N#C/C(=C\\c1ccc(O)c(O)c1)C(N)=O", "GI50", "33.9 µM (inactive)"),
]

# batch: return GI50 for each of the 7 compounds below
1. COc1ccc(NC(=O)CC/C(CC(=O)C(C)(C)C)=N\NC(=O)C(=O)NN)cc1
2. CCOC(=N)CC(=O)Nc1cccc(Cl)c1
3. N#CC(NNC(=O)c1c(Cl)c(Cl)c(Cl)c(Cl)c1-c1nc2cc(C(=O)c3ccccc3)ccc2[nH]1)c1cccc(Oc2ccccc2)c1 (stereo unspecified)
4. Nc1nc(-c2ccccc2)cc(-c2ccccc2O)n1
5. COc1cc2c(cn1)[nH]c1ccccc12
6. O=C1C=CC(=O)N1c1ccc(I)cc1
7. O=C(Cn1c(C(=O)c2ccccc2)nc2ccccc21)c1ccccc1

Output:
["> 100 µM (inactive)", "> 100 µM (inactive)", "23.4 µM (inactive)", "45.2 µM (inactive)", "> 100 µM (inactive)", "23.6 µM (inactive)", "> 77.1 µM (inactive)"]
